Target: EGFR L858R/T790M/C797S (BaF3-LTC cells) (Homo sapiens, UniProt P00533, C797S/L858R/T790M)
Construct: expressed in transfected cells; host or cells: BaF3
Sequence (P00533 25-1210 T790M/C797S/L858R): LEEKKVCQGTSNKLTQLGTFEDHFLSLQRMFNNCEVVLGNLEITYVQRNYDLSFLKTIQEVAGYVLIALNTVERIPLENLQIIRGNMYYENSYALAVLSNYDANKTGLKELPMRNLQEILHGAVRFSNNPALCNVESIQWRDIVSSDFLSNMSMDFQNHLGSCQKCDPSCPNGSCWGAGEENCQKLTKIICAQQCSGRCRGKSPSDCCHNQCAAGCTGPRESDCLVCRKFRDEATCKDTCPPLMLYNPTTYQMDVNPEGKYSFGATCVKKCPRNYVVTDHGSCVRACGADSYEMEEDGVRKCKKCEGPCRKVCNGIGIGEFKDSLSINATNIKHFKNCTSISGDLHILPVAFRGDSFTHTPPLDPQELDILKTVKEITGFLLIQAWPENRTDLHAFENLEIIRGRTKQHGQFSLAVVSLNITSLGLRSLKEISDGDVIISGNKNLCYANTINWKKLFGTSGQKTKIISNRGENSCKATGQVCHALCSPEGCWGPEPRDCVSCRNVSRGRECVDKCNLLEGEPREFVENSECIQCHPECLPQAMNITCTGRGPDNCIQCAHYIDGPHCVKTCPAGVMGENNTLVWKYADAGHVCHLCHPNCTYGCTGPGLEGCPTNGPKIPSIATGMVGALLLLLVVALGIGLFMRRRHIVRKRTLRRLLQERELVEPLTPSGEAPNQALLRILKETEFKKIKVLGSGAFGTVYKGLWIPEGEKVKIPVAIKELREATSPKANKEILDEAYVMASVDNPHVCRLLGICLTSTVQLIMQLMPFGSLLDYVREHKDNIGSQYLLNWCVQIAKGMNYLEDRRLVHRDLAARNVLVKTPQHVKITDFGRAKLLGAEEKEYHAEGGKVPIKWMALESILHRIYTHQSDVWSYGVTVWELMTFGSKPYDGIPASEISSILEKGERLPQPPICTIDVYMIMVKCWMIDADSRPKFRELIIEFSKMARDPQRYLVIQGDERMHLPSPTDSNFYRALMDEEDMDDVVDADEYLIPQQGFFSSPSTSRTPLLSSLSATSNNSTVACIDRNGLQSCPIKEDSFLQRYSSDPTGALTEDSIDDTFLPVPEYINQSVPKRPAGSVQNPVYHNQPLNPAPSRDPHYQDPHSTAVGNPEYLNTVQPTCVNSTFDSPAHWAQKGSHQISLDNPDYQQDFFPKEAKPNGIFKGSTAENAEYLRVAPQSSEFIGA
Assay: EGFR degradation HTRF assay, BaF3-LTC cells
Assay type: cell-based
Conditions: BaF3-LTC cells; EGFR degradation, IC50 (DC50) from curve fit; read-out: DC50(nM) BaF3-LTC
API: label(entry) gives rule met if the entry's DC50 is strictly smaller than 10 nM; on equality or larger values it gives rule not met.

1. CCc1cc(Nc2ncc(Br)c(Nc3ccc4nc(C)ccc4c3P(C)(C)=O)n2)c(OC)cc1N1CCC(N2CCN(C3CCN(c4cc(F)c(C5CCC(=O)NC5=O)c(F)c4)CC3)CC2)CC1 (centres unmarked) [Example 694] = rule not met
2. CCc1ccc2c(P(C)(C)=O)c(Nc3nc(Nc4cc(CC)c(N5CCC(N6CCN(CCc7ccc([C@H]8CCC(=O)NC8=O)cc7)CC6)CC5)cc4OC)ncc3Br)ccc2n1 [Example 654] = rule not met
3. CCOc1cc(N2CCC(N3CCN(CCc4cc(F)c([C@H]5CCC(=O)NC5=O)c(F)c4)CC3)CC2)c(CC)cc1Nc1ncc(Br)c(Nc2ccc3nc(C)ncc3c2P(C)(C)=O)n1 [Example 738] = rule met
4. CCOc1cc(N2CCC(N3CCN(CCc4cc(C)cc5c4oc(=O)n5C4CCC(=O)NC4=O)CC3)CC2)c(CC)cc1Nc1ncc(Br)c(Nc2ccc3nc(CC)ccc3c2P(C)(C)=O)n1 (centres unmarked) [Example 469] = rule not met
5. CCc1cc(Nc2ncc(Br)c(Nc3cc(F)c4nc(C)ccc4c3P(C)(C)=O)n2)c(OC)cc1N1CCC(N2CCN(C(=O)C3CCN(c4cc(F)c(C5CCC(=O)NC5=O)c(F)c4)CC3)CC2)CC1 (centres unmarked) [Example 512] = rule met

---

Target: EGFR L858R/T790M/C797S (BaF3-LTC cells) (Homo sapiens, UniProt P00533, C797S/L858R/T790M)
Construct: expressed in transfected cells; host or cells: BaF3
Assay: EGFR degradation HTRF assay, BaF3-LTC cells
Assay type: cell-based
Conditions: BaF3-LTC, 16h treatment; read-out: LTC DC50
# DC50 values compiled below
reported-property: DC50 (nM)

1. CCc1cc(Nc2ncc(Br)c(Nc3ccc4nccnc4c3P(C)(C)=O)n2)c(OC)cc1N1CCC(N2CCN(C(=O)[C@H]3C[C@H](Nc4ccc(C5CCC(=O)NC5=O)cc4)C3)CC2)CC1 (some centres unmarked) [Example 298] = 16.7
2. CCc1cc(Nc2ncc(Br)c(Nc3ccc4nccnc4c3P(C)(C)=O)n2)c(OC)cc1N1CCC(N2CCN(CC3CCN(c4ccc(C5CCC(=O)NC5=O)cc4)C3)CC2)CC1 (centres unmarked) [Example 168] = 47
3. CCc1cc(Nc2ncc(Cl)c(Nc3ccc4nccnc4c3P(C)(C)=O)n2)c(OC)cc1N1CCC(N2CCN(CCC3CCN(c4cc(F)c(C5CCC(=O)NC5=O)c(F)c4)CC3)CC2)CC1 (centres unmarked) [Example 269] = 43.7
4. CCc1cc(Nc2ncc(Br)c(Nc3ccc4nccnc4c3P(C)(C)=O)n2)c(OC)cc1N1CCC(N2CCN(C(=O)C3CN(c4ccc(C5CCC(=O)NC5=O)c(F)c4)C3)CC2)CC1 (centres unmarked) [Example 228] = 19.8
5. CCc1cc(Nc2ncc(Br)c(Nc3ccc4nccnc4c3P(C)(C)=O)n2)c(OC)cc1N1CCC(N2CCN(C(=O)[C@@H]3CCN(c4ccc5c(c4)CN(C4CCC(=O)NC4=O)C5=O)C3)CC2)CC1 (some centres unmarked) [Example 241] = 4.6
6. CCc1cc(Nc2ncc(Br)c(Nc3ccc4nccnc4c3P(C)(C)=O)n2)c(OC)cc1N1CCC(N2CCN(C(=O)C3CN(c4ccc5c(c4)CN(C4CCC(=O)NC4=O)C5=O)C3)CC2)CC1 (centres unmarked) [Example 246] = 4.47
7. CCc1cc(Nc2ncc(Br)c(Nc3ccc4c(=O)n(C)ccc4c3P(C)(C)=O)n2)c(OC)cc1N1CCC(N2CCN(CCC3CCN(c4cc(F)c(C5CCC(=O)NC5=O)c(F)c4)CC3)CC2)CC1 (centres unmarked) [Example 720] = 20.3
8. CCc1cc(Nc2ncc(Br)c(Nc3ccc4nc(C)ccc4c3P(C)(C)=O)n2)c(OC)cc1N1CCC(N2CCN(CCc3ccc4c(c3)N(C3CCC(=O)NC3=O)C(=O)C4(C)C)CC2)CC1 (centres unmarked) [Example 413] = 6.11
9. CCc1cc(Nc2ncc(Br)c(Nc3ccc4nccnc4c3P(C)(C)=O)n2)c(OC)cc1N1CCC(N2CCN(C(=O)C3CN(c4ccc5c(c4)C(=O)N(C4CCC(=O)NC4=O)C5)C3)CC2)CC1 (centres unmarked) [Example 227] = 10.3
10. CCc1cc(Nc2ncc(Br)c(Nc3ccc4nc(C)ccc4c3P(C)(C)=O)n2)c(OC)cc1N1CCC(N2CCN(C3CC(c4ccc(NC5CCC(=O)NC5=O)cc4)C3)CC2)CC1 (centres unmarked) [Example 709] = 21.6
11. CCc1cc(Nc2ncc(Br)c(Nc3ccc4nccnc4c3P(C)(C)=O)n2)c(OC)cc1N1CCC(N2CCN(CCc3ccc(C4CCC(=O)NC4=O)c(F)c3F)CC2)CC1 (centres unmarked) [Example 10] = 83.3
12. CCc1cc(Nc2ncc(Br)c(Nc3ccc4nc(C)ccc4c3P(C)(C)=O)n2)c(OC)cc1N1CCC(N2CCN(C(=O)C3CCN(c4ccc5c(c4)n(C)c(=O)n5C4CCC(=O)NC4=O)CC3)CC2)CC1 (centres unmarked) [Example 210] = 1.24
13. CCc1cc(Nc2ncc(Br)c(Nc3ccc4nccnc4c3P(C)(C)=O)n2)c(OC)cc1N1CCC(N2CCN(CCN(C)c3ccc4c(c3)CN(C3CCC(=O)NC3=O)C4=O)CC2)CC1 (centres unmarked) [Example 71] = 11.5
14. CCc1cc(Nc2ncc(Br)c(Nc3ccc4nc(C)ccc4c3P(C)(C)=O)n2)c(OC)cc1N1CCC(N2CCCN(CCc3cc(F)c(C4CCC(=O)NC4=O)c(F)c3)CC2)CC1 (centres unmarked) [Example 713] = 50.8
15. CCc1cc(Nc2ncc(Br)c(Nc3ccc4nccnc4c3P(C)(C)=O)n2)c(OC)cc1N1CCC(N2CCN(CC3CCN(c4cccc(C5CCC(=O)NC5=O)c4)CC3)CC2)CC1 (centres unmarked) [Example 264] = 61
16. CCc1cc(Nc2ncc(Br)c(Nc3ccc4c(=O)n(C)ccc4c3P(C)(C)=O)n2)c(OC)cc1N1CCC(N2CCN(CCc3cccc4c3n(C)c(=O)n4C3CCC(=O)NC3=O)CC2)CC1 (centres unmarked) [Example 705] = 4.56
17. CCc1cc(Nc2ncc(Br)c(Nc3ccc4nc(C)ccc4c3P(C)(C)=O)n2)c(OC)cc1N1CCC(N2CCN(C(=O)[C@H]3C[C@H](Nc4cc(F)c(C5CCC(=O)NC5=O)c(F)c4)C3)CC2)CC1 (some centres unmarked) [Example 209] = 3.92
18. COc1cc(N2CCC(N3CCN(C(=O)CCCCN4CCN(c5ccc6c(c5)C(=O)N(C5CCC(=O)NC5=O)C6=O)CC4)CC3)CC2)ccc1Nc1ncc(Cl)c(Nc2ccccc2N(C)S(C)(=O)=O)n1 (centres unmarked) [Example 128] = 168
19. CCc1cc(Nc2ncc(Br)c(Nc3ccc4nccnc4c3P(C)(C)=O)n2)c(OC)cc1N1CCC(N2CCN(CCc3ccc(C4CCC(=O)NC4=O)c(F)c3)[C@H](CO)C2)CC1 (some centres unmarked) [Example 291] = 23.6
